testedTarget: NRAS G12C (Homo sapiens, UniProt P01111+P62937, G12C)
Sequence (P01111 whole entry G12C): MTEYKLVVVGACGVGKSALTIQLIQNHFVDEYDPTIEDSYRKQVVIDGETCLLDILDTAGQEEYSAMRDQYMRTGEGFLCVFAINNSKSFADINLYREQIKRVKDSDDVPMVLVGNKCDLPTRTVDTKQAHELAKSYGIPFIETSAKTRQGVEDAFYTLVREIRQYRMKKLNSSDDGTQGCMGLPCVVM
Sequence (P62937 whole entry): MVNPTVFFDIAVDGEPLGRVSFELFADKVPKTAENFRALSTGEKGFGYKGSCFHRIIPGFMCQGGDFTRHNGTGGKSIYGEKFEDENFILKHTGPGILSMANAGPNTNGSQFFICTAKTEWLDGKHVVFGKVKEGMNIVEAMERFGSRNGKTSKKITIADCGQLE
assayName: Ras-Raf disruption / FRET / MOA assay (BRAF RBD)
Assay type: biochemical
measurementParameters: NRAS G12C FRET data IC50, NRAS G12C
pIC50: −log10 of the molar value.
This section presents compounds with their documented pIC50 values.

CCn1c(-c2cccnc2[C@H](C)OC)c2c3cc(ccc31)-c1cc(O)cc(c1)C[C@H](NC(=O)[C@H](C(C)C)N(C)C(=O)CN(C)C(=O)[C@H]1N[C@H]1C(F)(F)F)C(=O)N1CCC[C@H](N1)C(=O)OCC(C)(C)C2 [Example 259] :: 7.00 to 8.00
CCn1c(-c2cccnc2[C@H](C)OC)c2c3cc(ccc31)-c1cc(O)cc(c1)C[C@H](NC(=O)[C@H](C(C)C)N(C)C(=O)CN(C)C(=O)[C@@H]1CN1CCCOC(C)=O)C(=O)N1CCC[C@H](N1)C(=O)OCC(C)(C)C2 (stereo partly drawn) [Example 267] :: > 8.00
CCn1c(-c2cccnc2[C@H](C)OC)c2c3cc(ccc31)-c1cc(O)cc(c1)C[C@H](NC(=O)[C@H](C1CCCC1)N(C)C(=O)CN(C)C(=O)[C@H]1N[C@H]1C1(F)CC1)C(=O)N1CCC[C@H](N1)C(=O)OCC(C)(C)C2 [Example 315] :: 7.00 to 8.00
CCn1c(-c2cccnc2[C@H](C)OC)c2c3cc(ccc31)-c1cc(O)cc(c1)C[C@H](NC(=O)[C@H](C(C)C)N1CC[C@@H](NC(=O)[C@H]3CN3)C1=O)C(=O)N1CCC[C@H](N1)C(=O)OCC(C)(C)C2 [Example 130] :: 7.00 to 8.00
CCn1c(-c2cccnc2[C@H](C)OC)c2c3cc(ccc31)-c1cc(O)cc(c1)C[C@H](NC(=O)[C@H](C(C)C)N(C)C(=O)[C@H]1CC[C@@H](C)N1C(=O)[C@@H]1CN1)C(=O)N1CCC[C@H](N1)C(=O)OCC(C)(C)C2 [Example 153] :: 7.00 to 8.00

Exercise: Entry CCn1c(-c2cccnc2[C@H](C)OC)c2c3cc(ccc31)-c1cc(O)cc(c1)C[C@H](NC(=O)[C@H](C(C)C)N(C)C(=O)CN(C)C(=O)[C@@H]1CN1CCCN1CCCC1=O)C(=O)N1CCC[C@H](N1)C(=O)OCC(C)(C)C2 (stereo partly drawn) [Example 269] has what pIC50?
Solution: > 8.00

Exercise: Another: CCn1c(-c2cccnc2[C@H](C)OC)c2c3cc(ccc31)-c1cc(O)cc(c1)C[C@H](NC(=O)[C@H](C(C)C)N(C)C(=O)CN(C)C(=O)[C@H]1CN1CCCOC)C(=O)N1CCC[C@H](N1)C(=O)OCC(C)(C)C2 (stereo partly drawn) [Example 201]
Solution: > 8.00

Exercise: Another: CCn1c(-c2cccnc2[C@H](C)OC)c2c3cc(ccc31)-c1cc(O)cc(c1)C[C@H](NC(=O)[C@H](C1CCCC1)N(C)C(=O)CN(C)C(=O)[C@H]1[C@@H](C3CC3)N1CCCOC)C(=O)N1CCC[C@H](N1)C(=O)OCC(C)(C)C2 (stereo partly drawn) [Example 317]
Solution: 7.00 to 8.00

Exercise: Another: CCn1c(-c2cccnc2[C@H](C)OC)c2c3cc(ccc31)-c1cc(O)cc(c1)C[C@H](NC(=O)[C@H](C(C)C)N(C)C(=O)CNC(=O)[C@@H]1CN1)C(=O)N1CCC[C@H](N1)C(=O)OCC(C)(C)C2 [Example 147]
Solution: 7.00 to 8.00

Exercise: Another: CCn1c(-c2cccnc2[C@H](C)OC)c2c3cc(ccc31)-c1cc(O)cc(c1)C[C@H](NC(=O)[C@H](C(C)C)N(C)C(=O)CN(C)C(=O)[C@H]1CN1C1COC1)C(=O)N1CCC[C@H](N1)C(=O)OCC(C)(C)C2 (stereo partly drawn) [Example 275]
Solution: 7.00 to 8.00

Exercise: Another: CCn1c(-c2cccnc2[C@H](C)OC)c2c3cc(ccc31)-c1cc(O)cc(c1)C[C@H](NC(=O)[C@H](C(C)C)N(C)C(=O)C13CC(CN1C(=O)[C@H]1CN1)C3)C(=O)N1CCC[C@H](N1)C(=O)OCC(C)(C)C2 [Example 164]
Solution: 6.00 to 7.00

Exercise: Another: CCn1c(-c2cccnc2[C@H](C)OC)c2c3cc(ccc31)-c1cc(O)cc(c1)C[C@H](NC(=O)[C@H](C(C)C)N(C)C(=O)[C@H]1CC[C@@H](C)N1C(=O)[C@H]1CN1)C(=O)N1CCC[C@H](N1)C(=O)OCC(C)(C)C2 [Example 154]
Solution: 7.00 to 8.00
